- Test system: Pasteurella multocida 60A
- EXPERIMENTAL DETAILS: conventional broth-dilution microtiter test, MIC
- Format: cell-based
- CONDITION DESCRIPTION: avian isolate
- Protocol: The MIC's in Table III were determined by standard agar-dilutionassays. The MIC's in Table IV were obtained using a conventional broth-dilution microtiter test.
# reported MIC (minimal inhibitory concentration); entries follow
Answer as a number with no unit attached.

Study these solved cases before continuing.
Entry under test: CCC(=O)OCC1C=C(C)C=CC(=O)C(C)CC(CC=O)C(OC2OC(C)C(OC3CC(C)(O)C(OC(=O)CC)C(C)O3)C(N(C)C)C2O)C(C)C(O)CC(=O)OC1CC (stereo not shown) [Compound 4, 23,4"-Di-O-Propionyl-DMT] . Its MIC (minimal inhibitory concentration) was 25

Entry under test: CCC(=O)OC1C(C)OC(OC2C(C)OC(OC3C(CC=O)CC(C)C(=O)C=CC(C)=CC(C)C(CC)OC(=O)CC(O)C3C)C(OC(C)=O)C2N(C)C)CC1(C)O (stereo not shown) [Compound 22, 2'-O-Acetyl-4"-O-Propionyl-DMOT] . Its MIC (minimal inhibitory concentration) was 25

Entry under test: CCC1OC(=O)CC(O)C(C)C(OC2OC(C)C(OC3CC(C)(O)C(OC(=O)Cc4ccccc4)C(C)O3)C(N(C)C)C2OC(C)=O)C(CC=O)CC(C)C(=O)C=CC(C)=CC1C (stereo not shown) [Compound 20, 2'-O-Acetyl-4"-O-Phenylacetyl-DMOT] . Its MIC (minimal inhibitory concentration) was 50

Okay, now this molecule:
Entry under test: CCC(=O)OC1CC(=O)OC(CC)C(C)C=C(C)C=CC(=O)C(C)CC(CC=O)C(OC2OC(C)C(OC3CC(C)(O)C(OC(=O)CC)C(C)O3)C(N(C)C)C2O)C1C (stereo not shown) [Compound 25, 3,4"-Di-O-propionyl-DMOT] . Its MIC (minimal inhibitory concentration) was 50

* * *

- Tested on: Staphylococcus aureus
- EXPERIMENTAL DETAILS: conventional broth-dilution microtiter test, MIC
- Format: cell-based
MEASURED ENDPOINT: MIC (minimal inhibitory concentration)

Study these solved cases before continuing.
Reading of MIC (minimal inhibitory concentration) for CCC(=O)OC1CC(=O)OC(CC)C(COC(=O)C(Cl)(Cl)Cl)C=C(C)C=CC(=O)C(C)CC(CC=O)C(OC2OC(C)C(OC3CC(C)(O)C(OC(=O)CC)C(C)O3)C(N(C)C)C2OC(C)=O)C1C (stereo not drawn) [Compound 15] with Staphylococcus aureus: 1.56

Reading of MIC (minimal inhibitory concentration) for CCC(=O)OC1CC(=O)OC(CC)C(CO)C=C(C)C=CC(=O)C(C)CC(CC=O)C(OC2OC(C)C(OC3CC(C)(O)C(OC(=O)CC)C(C)O3)C(N(C)C)C2O)C1C (stereo not drawn) [Compound 17, 3,4"-Di-O-Propionyl-DMT] with Staphylococcus aureus: 1.56

Okay, now this compound:
Reading of MIC (minimal inhibitory concentration) for CCC1OC(=O)CC(O)C(C)C(OC2OC(C)C(OC3CC(C)(O)C(OC(=O)Cc4ccccc4)C(C)O3)C(N(C)C)C2O)C(CC=O)CC(C)C(=O)C=CC(C)=CC1COC(=O)Cc1ccccc1 (stereo not drawn) [Compound 6, 23,4"-Di-O-Phenylacetyl-DMT] with Staphylococcus aureus: 1.56

* * *

- Tested on: Pasteurella multocida 60A
- EXPERIMENTAL DETAILS: conventional broth-dilution microtiter test, MIC
- Type: cell-based
- CONDITION DESCRIPTION: avian isolate
MEASURED ENDPOINT: MIC (minimal inhibitory concentration)
Answer as a number with no unit attached.

Entry under test: CCC1OC(=O)CC(O)C(C)C(OC2OC(C)C(OC3CC(C)(O)C(OC(=O)Cc4ccccc4)C(C)O3)C(N(C)C)C2O)C(CC=O)CC(C)C(=O)C=CC(C)=CC1C (stereo not shown) . Its MIC (minimal inhibitory concentration) was 50

Okay, now this compound:
Entry under test: CCC(=O)OC1C(C)OC(OC2C(C)OC(OC3C(CC=O)CC(C)C(=O)C=CC(C)=CC(C)C(CC)OC(=O)CC(O)C3C)C(O)C2N(C)C)CC1(C)O (stereo not shown) . Its MIC (minimal inhibitory concentration) was 12.5
